Just for reference, PubChem BioAssay (NCATS) is where these values come from.

# assay_text: Quantitative High-Throughput drug screen in 47 multiple myeloma cell lines against the NCATS MIPE library collection: OCIMY5_PLB cell viability assay (AID 1918988); also: nearly all actives have a fitted effect of over 65% in size
# condition_context: OCI-MY5 myeloma viability, ATP luminescence, 48 h; series mostly up to 45.8 µM
Inconclusive results are not listed. Calls of active or inactive are those of the source. Calls follow the shape of the dose curve; as a rule, active = well fitted cell-killing curve with a large enough effect; inconclusive = small, poorly fitted or top-dose-only effect, or effect the other way; inactive = no such curve, though single readings can be large or run the other way.
Outcome codes: 1 = active, 0 = inactive

[[record]]
molecule = "CN1CCc2c(c3ccccc3n2Cc2ccc(C(=O)NO)cc2)C1"
class_name = 1

[[record]]
molecule = "CC[C@@]1([C@@H]2O[C@@H]([C@H]3O[C@@](O)(CO)[C@H](C)C[C@H]3C)C[C@H]2C)CC[C@H]([C@]2(C)CC[C@]3(C[C@H](O)[C@@H](C)[C@@H]([C@@H](C)[C@@H](OC)[C@H](C)C(=O)O)O3)O2)O1"
class_name = 1

[[record]]
molecule = "NC(=O)N1CCC(CC(=O)N2CCC([C@H]3c4ncc(Br)cc4CCc4cc(Cl)cc(Br)c43)CC2)CC1"
class_name = 1

[[record]]
molecule = "COC(=O)[C@H](CCCN=C(N)N)NS(=O)(=O)c1ccc(C)cc1"
class_name = 0

[[record]]
molecule = "C[N+]1(C)[C@@H]2C[C@@H](OC(=O)C(O)(c3cccs3)c3cccs3)C[C@H]1[C@@H]1O[C@@H]12"
class_name = 0

[[record]]
molecule = "C[C@@]12C[C@@]3(O)O[C@@H](O1)[C@]1(COC(=O)c4ccccc4)[C@@H]3C[C@@]12O[C@@H]1O[C@H](CO)[C@@H](O)[C@H](O)[C@@H]1O"
class_name = 0

[[record]]
molecule = "C=C[C@@H]1CN2CCC1C[C@H]2[C@H](O)c1ccnc2ccc(OC)cc12 (some centres not stated)"
class_name = 1

[[record]]
molecule = "C[C@](Cc1c[nH]c2ccccc12)(NC(=O)OC1C2CC3CC(C2)CC1C3)C(=O)NC[C@H](NC(=O)CCC(=O)O)c1ccccc1 (some centres not stated)"
class_name = 0

[[record]]
molecule = "Cc1ccc2nc(NCCN)c3ncc(C)n3c2c1"
class_name = 1

[[record]]
molecule = "CC(C)[C@H](CO)Nc1nc(Nc2cccc(Cl)c2)c2ncn(C(C)C)c2n1"
class_name = 1

[[record]]
molecule = "Cc1onc(-c2ccccc2)c1C(=O)N[C@@H]1C(=O)N2[C@@H](C(=O)O)C(C)(C)S[C@@H]12"
class_name = 0

[[record]]
molecule = "COc1ccc(C=Cc2cc(OC)c(OC)c(OC)c2)cc1NC(=O)[C@H](N)CO"
class_name = 1

